This collection of values is drawn from patent US7160888B2.

Consider the following molecules; for each one, report its Emax at 1 µM.
testSystem: D2 receptor (Homo sapiens, UniProt P14416)
Sequence (P14416 whole entry): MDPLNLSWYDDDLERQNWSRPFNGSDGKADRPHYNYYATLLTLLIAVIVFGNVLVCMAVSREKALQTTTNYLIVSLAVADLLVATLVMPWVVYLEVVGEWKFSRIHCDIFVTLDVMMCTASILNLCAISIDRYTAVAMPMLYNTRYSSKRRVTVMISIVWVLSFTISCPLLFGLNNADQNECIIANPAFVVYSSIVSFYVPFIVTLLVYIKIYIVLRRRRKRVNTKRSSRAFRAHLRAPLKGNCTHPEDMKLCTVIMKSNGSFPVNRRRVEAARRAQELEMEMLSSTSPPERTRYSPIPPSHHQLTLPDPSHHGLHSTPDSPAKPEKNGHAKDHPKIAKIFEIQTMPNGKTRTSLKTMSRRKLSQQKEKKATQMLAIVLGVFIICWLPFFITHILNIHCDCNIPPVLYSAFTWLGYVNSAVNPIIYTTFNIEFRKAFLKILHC
assayText: [3H]Thymidine uptake assay for D2 intrinsic activity
Assay type: cell-based
reportedConditions: Table 1; test compound 1 μM; 1 μM Quinpirole = 100% intrinsic activity
The number alone won't do; follow it with the unit.

Query :: Respond only with Emax at 1 µM recorded for `O=C1CCc2ccc(OCCCCN3CCN(c4cccc5c4CCCC5=O)CC3)nc2N1`
Result :: 48%

Query :: Respond only with Emax at 1 µM recorded for `COC(=O)c1c(OCCCCN2CCN(c3cccc4ccccc34)CC2)ncc2c1NC(=O)CC2`
Result :: 19%

Query :: Respond only with Emax at 1 µM recorded for `CC(C)COc1ccccc1N1CCN(CCCCOc2ccc3c(n2)NC(=O)CC3(C)C)CC1`
Result :: 32%

Query :: Respond only with Emax at 1 µM recorded for `N#Cc1ccc2cccc(N3CCN(CCCCOc4ccc5ccc(=O)[nH]c5n4)CC3)c2c1`
Result :: 39%

Query :: Respond only with Emax at 1 µM recorded for Cc1cc2c(nc1OCCCCN1CCN(c3cccc4ccccc34)CC1)NC(=O)CC2 [Example E2]
Result :: 22%

Query :: Respond only with Emax at 1 µM recorded for `CC(C)(CCCN1CCN(c2cccc3ccccc23)CC1)Oc1ccc2c(n1)NC(=O)CC2`
Result :: 33%

Query :: Respond only with Emax at 1 µM recorded for `O=C1CCc2cc(Cl)c(OCCCCN3CCN(c4cccc5ccccc45)CC3)nc2N1`
Result :: 32%
